target: HLA-A02.01 (human); assay: competition with radiolabeled reference peptide on prepared MHC class I; settings: remark: other sources report otherwise
assay.readout: Affinity (nM)

binder=MQLMPFGCL numeric_result=116

[1] MANGSLLNYL
[2] QLIMQLMPF
[3] CLTSTVQLIM
[4] QLIMQLMPFG
List the 4 entries from lowest Affinity to highest Affinity value. Please express your ranking as an ordered list of the labels.
2, 3, 1, 4
(2: 193 nM, 3: 537 nM, 1: 1010 nM, 4: 5210 nM)
